- assay-target: RIG-I K788A K788A (Homo sapiens) (UniProt O95786)
- Sequence: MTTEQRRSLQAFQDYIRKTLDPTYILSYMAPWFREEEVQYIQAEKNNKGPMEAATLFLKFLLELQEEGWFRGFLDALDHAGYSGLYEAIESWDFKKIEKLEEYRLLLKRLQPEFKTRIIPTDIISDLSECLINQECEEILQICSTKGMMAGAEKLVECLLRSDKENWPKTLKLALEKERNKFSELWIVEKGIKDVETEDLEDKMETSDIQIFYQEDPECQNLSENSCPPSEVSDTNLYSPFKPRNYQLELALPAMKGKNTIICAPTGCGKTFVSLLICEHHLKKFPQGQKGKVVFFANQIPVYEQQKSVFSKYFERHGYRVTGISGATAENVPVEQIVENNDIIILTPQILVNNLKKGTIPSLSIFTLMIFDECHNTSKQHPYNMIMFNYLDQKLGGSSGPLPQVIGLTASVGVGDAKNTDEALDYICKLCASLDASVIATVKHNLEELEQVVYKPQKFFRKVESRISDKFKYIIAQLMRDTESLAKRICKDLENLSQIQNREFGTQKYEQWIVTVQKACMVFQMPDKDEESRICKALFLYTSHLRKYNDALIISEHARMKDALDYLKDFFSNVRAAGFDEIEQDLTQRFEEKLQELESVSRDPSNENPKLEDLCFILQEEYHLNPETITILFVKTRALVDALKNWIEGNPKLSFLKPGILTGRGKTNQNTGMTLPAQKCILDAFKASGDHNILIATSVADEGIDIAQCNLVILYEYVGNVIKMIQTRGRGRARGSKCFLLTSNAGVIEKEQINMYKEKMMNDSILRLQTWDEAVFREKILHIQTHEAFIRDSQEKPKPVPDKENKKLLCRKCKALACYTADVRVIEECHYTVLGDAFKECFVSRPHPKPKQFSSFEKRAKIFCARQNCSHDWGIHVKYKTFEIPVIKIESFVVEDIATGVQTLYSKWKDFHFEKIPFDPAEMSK
- procedure-details: fluorescence polarization
- assay-setup: internal 6-carboxyfluorescein in backbone between U12 and C13 (central tetraloop bases); 25 mM MOPS pH 7.4, 150 mM KCl, 2 mM DTT, 2 mM MgCl2, 0.01% Triton X-100, 1 nM RNA, room temperature, 1 h
measurement-kind: pKd
Kindly note that pKd refers to -log10 of the concentration in mol/L and answer with the value alone.

Please report the measured pKd for GGACGUACGUUUCGACGUACGUCC [5'OH10L-F]
7.66

----------
- assay-target: RIG-I R791A R791A (Homo sapiens)
- Sequence: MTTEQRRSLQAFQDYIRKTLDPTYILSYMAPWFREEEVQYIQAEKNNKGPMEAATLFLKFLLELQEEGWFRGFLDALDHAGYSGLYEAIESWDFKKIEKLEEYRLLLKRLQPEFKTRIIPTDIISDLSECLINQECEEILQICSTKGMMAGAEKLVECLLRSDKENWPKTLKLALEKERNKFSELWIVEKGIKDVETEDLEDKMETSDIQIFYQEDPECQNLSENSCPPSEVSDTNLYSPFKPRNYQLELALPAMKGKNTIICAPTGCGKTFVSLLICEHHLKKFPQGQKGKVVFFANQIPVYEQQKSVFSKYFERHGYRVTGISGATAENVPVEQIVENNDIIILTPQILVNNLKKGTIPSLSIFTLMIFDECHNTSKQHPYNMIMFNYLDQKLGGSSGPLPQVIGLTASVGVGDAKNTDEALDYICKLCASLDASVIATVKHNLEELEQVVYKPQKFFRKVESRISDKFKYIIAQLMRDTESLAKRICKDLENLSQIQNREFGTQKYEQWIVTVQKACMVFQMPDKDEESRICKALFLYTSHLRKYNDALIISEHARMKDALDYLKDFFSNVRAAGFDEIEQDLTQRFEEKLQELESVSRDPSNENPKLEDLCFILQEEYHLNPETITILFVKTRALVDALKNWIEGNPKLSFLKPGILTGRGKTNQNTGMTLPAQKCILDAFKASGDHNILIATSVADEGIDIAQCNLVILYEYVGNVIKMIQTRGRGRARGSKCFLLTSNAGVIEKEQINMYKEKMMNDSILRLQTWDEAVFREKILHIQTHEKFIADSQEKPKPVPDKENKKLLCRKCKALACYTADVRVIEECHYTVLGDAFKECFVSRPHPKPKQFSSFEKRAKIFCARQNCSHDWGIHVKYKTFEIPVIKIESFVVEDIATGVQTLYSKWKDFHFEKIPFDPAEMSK
- procedure-details: fluorescence polarization
- assay-setup: internal 6-carboxyfluorescein in backbone between U12 and C13 (central tetraloop bases); 25 mM MOPS pH 7.4, 150 mM KCl, 2 mM DTT, 2 mM MgCl2, 0.01% Triton X-100, 1 nM RNA, room temperature, 1 h
measurement-kind: Kd (nM)
The reply should contain only the number, in nM.

Please report the measured Kd for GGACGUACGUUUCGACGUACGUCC [5'OH10L-F]
50.7
